- target-desc: Tyrosine-protein kinase JAK2 (Homo sapiens)
- Sequence (O60674 whole entry): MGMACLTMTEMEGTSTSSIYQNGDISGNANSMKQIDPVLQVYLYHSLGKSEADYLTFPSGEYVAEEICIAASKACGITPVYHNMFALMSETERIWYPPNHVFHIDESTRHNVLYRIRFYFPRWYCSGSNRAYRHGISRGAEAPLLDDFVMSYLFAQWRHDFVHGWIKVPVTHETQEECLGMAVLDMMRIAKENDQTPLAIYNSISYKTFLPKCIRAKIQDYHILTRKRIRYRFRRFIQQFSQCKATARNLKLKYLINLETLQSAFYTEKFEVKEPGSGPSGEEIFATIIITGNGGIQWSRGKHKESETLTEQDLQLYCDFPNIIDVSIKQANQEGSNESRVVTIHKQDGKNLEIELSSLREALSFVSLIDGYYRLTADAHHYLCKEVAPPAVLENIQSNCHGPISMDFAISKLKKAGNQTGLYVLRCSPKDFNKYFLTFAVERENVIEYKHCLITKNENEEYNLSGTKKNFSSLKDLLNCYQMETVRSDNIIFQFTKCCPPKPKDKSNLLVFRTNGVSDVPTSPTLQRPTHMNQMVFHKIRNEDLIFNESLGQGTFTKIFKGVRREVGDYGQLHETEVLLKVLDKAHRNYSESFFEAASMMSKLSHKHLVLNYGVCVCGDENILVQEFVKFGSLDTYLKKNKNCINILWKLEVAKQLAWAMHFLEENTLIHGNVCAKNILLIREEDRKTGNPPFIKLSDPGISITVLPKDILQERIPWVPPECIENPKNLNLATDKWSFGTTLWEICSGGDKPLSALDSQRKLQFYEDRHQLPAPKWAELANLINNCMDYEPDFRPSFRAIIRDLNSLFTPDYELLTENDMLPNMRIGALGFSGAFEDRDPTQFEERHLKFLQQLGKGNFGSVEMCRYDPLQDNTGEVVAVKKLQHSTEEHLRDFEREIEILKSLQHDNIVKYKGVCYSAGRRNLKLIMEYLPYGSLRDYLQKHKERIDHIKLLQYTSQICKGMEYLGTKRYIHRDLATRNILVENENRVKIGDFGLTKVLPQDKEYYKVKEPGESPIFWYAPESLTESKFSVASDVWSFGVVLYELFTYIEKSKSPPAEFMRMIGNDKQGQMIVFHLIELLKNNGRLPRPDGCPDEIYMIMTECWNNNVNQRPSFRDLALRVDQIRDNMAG
pIC50: −log10 of the molar value.
Classification field: Fulfilled = pIC50 at or over 6; Not fulfilled = pIC50 under 6.

                                     smiles  qualitative_label
0  CN(c1ncnc2[nH]ccc12)[C@H]1CN(C(=O)c2ccccc2C(F)(F)F)CC12CC2      Not fulfilled
1  COc1ccc(S(=O)(=O)N2C[C@H](N(C)c3ncnc4[nH]ccc34)C3(CC3)C2)cc1          Fulfilled
2  CC(C)C(=O)N1C[C@H](N(C)c2ncnc3[nH]ccc23)C2(CC2)C1      Not fulfilled
3  CN(c1ncnc2[nH]ccc12)[C@H]1CN(S(=O)(=O)c2ccccc2[N+](=O)[O-])CC12CC2          Fulfilled
4  CNC(=O)CC(=O)N1C[C@H](N(C)c2ncnc3[nH]ccc23)C2(CC2)C1      Not fulfilled
5  CN(c1ncnc2[nH]ccc12)[C@H]1CN(S(=O)(=O)c2ccccc2)CC12CC2          Fulfilled

Tell me whether pIC50 is at least 6 here: CCCCN1C[C@H](N(C)c2ncnc3[nH]ccc23)C2(CC2)C1
Not fulfilled
